A collection of binders and their measured koff
# target-under-test: T1, Avi/His-HuIL18BPa (recombinant human IL-18BP isoform A with Avi and poly-His tags) (human, biotinylated with BirA on the Avi tag in some assays)
# T1 construct: also called human IL-18BP-Avi-His
# T1 chain: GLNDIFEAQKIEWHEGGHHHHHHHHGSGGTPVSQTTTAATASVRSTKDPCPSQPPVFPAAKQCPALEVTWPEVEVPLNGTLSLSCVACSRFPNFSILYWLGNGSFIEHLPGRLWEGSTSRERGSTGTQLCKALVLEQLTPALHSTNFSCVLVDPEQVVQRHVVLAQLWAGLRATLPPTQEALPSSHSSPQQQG
# protocol-text: SPR Biacore T200, IgG captured on Protein A/G
Field format: number, assumed s⁻¹, no unit text.

Recorded results for 5 binders are shown here.
binder	koff / s⁻¹
anti-IL-18BP antibody variant BP-04.29 (antibody, V domains shown) VH: QVQLVQSGAEVKKPGASVKVSCKASGYTFTDYDMHWVRQAPGQGLEWMGIISTYYGDVSYAQKFQGRVTMTRDKSTSTVYMELSSLRSEDTAVYYCARSGTYNYGTRESHALDYWGQGTLVTVSS VL: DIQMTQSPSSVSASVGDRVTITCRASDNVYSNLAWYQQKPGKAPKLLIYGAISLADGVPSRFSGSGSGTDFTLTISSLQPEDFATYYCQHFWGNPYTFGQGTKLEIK	0.0062
anti-IL-18BP antibody variant BP-04.32 (antibody, V domains shown) VH: QVQLVQSGAEVKKPGASVKVSCKASGYTFTDYDMHWVRQAPGQGLEWMGIYSTYYGDVSYAQKFQGRVTMTRDKSTSTVYMELSSLRSEDTAVYYCARSGTYYYGTRESHALDYWGQGTLVTVSS VL: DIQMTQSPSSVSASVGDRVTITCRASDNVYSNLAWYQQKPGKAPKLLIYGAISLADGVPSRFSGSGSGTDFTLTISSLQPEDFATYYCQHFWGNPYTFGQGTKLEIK	0.0074
anti-IL-18BP antibody variant BP-04.28 (antibody, V domains shown) VH: QVQLVQSGAEVKKPGASVKVSCKASGYTFTDYDMHWVRQAPGQGLEWMGIISTYYGDVSYAQKFQGRVTMTRDKSTSTVYMELSSLRSEDTAVYYCARSGTYYYGTRESHPLDYWGQGTLVTVSS VL: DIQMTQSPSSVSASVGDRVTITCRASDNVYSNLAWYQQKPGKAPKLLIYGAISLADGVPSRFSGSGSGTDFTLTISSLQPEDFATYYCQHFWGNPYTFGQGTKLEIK	0.0019
anti-IL-18BP antibody variant BP-04.03 (antibody, V domains shown) VH: QVQLVQSGAEVKKPGASVKVSCKASGYTFTDYDMHWVRQAPGQGLEWMGIISTYYGDVSYAQKFQGRVTMTRDKSTSTVYMELSSLRSENTAVYYCARSGTYYYGTREQHALDYWGQGTLVTVSS VL: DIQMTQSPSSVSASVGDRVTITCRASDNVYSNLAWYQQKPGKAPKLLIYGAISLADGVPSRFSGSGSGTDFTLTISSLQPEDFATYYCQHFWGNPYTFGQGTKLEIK	0.00091
anti-IL-18BP antibody variant BP-04.07 (antibody, V domains shown) VH: QVQLVQSGAEVKKPGASVKVSCKASGYTFTDYDMHWVRQAPGQGLEWMGIISTYYGVVSYAQKKQGRVTMTRDKSTSTVYMELSSLRSEDTAVYYCARSGTYNYGTRESHALDYWGQGTLVTVSS VL: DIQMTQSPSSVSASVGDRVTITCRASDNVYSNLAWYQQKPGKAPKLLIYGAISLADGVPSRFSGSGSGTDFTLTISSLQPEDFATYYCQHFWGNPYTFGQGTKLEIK	0.00068

May I ask what koff has been recorded for anti-IL-18BP antibody variant BP-04.08 (antibody, V domains shown) VH: QVQLVQSGAEVKKPGASVKVSCKASGYTFTDYDMHWVRQAPGQGLEWMGIYSTYYGDVSYAQKKQGRVTMTRDKSTSTVYMELSSLRSEDTAVYYCARSGTYNYGTRESHALDYWGQGTLVTVSS VL: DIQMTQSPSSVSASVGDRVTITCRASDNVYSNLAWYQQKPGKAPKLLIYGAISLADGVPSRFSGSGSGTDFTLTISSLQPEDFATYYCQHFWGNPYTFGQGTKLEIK ?
0.0035

Recorded koff of anti-IL-18BP antibody variant BP-04.05 (antibody, V domains shown) VH: QVQLVQSGAEVKKPGASVKVSCKASGYTFTDYDMHWVRQAPGQGLEWMGIISTYYGVVSYAQKKQGRVTMTRDKSTSTVYMELSSLRSEDTAVYYCARSGTYYYGTRESHAFDYWGQGTLVTVSS VL: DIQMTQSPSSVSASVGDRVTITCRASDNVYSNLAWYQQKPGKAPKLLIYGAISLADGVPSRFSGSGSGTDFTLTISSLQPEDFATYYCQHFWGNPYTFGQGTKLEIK , please.
0.00034

Report koff for anti-IL-18BP antibody variant BP-04.15 (antibody, V domains shown) VH: QVQLVQSGAEVKKPGASVKVSCKASGYTFTDYDMHWVRQAPGQGLEWMGIISTYYGDVSYAQKFQGRVTMTRDKSTSTVYMELSSLRSEDTAVYYCARSGTYNYGTRESHPLDYWGQGTLVTVSS VL: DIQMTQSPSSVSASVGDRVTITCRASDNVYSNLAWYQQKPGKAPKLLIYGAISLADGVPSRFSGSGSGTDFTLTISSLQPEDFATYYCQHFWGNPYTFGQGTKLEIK please.
0.0028

Given the binder anti-IL-18BP antibody variant BP-04.09 (antibody, V domains shown) VH: QVQLVQSGAEVKKPGASVKVSCKASGYTFTDYDMHWVRQAPGQGLEWMGIYSTYYGVVSYAQKFQGRVTMTRDKSTSTVYMELSSLRSEDTAVYYCARSGTYYYGTRESHAFDYWGQGTLVTVSS VL: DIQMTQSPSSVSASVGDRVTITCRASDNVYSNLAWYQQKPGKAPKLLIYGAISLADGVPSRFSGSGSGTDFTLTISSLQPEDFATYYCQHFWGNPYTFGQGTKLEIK , what is its reported koff?
0.00028

Item under review: anti-IL-18BP antibody variant BP-04.25 (antibody, V domains shown) VH: QVQLVQSGAEVKKPGASVKVSCKASGYTFTDYDMHWVRQAPGQGLEWMGIYSTYYGDVSYAQKFQGRVTMTRDKSTSTVYMELSSLRSEDTAVYYCARSGTYNYGTRESHALDYWGQGTLVTVSS VL: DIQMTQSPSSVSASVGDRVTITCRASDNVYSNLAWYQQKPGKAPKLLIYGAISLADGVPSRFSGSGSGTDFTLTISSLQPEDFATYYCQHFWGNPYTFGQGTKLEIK . Reported koff?
0.0061

Looking for the measured koff of anti-IL-18BP antibody variant BP-04.24 (antibody, V domains shown) VH: QVQLVQSGAEVKKPGASVKVSCKASGYTFTDYDMHWVRQAPGQGLEWMGIYSTYYGDVSYAQKFQGRVTMTRDKSTSTVYMELSSLRSEDTAVYYCARSGTYYYGTRESHPLDYWGQGTLVTVSS VL: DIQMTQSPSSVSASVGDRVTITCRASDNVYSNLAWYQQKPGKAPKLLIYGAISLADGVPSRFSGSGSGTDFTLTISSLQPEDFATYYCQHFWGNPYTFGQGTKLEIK , can you help?
0.0047
